Molecular target: Hsp90β (Homo sapiens (Human), UniProt P08238)
Sequence (P08238 whole entry): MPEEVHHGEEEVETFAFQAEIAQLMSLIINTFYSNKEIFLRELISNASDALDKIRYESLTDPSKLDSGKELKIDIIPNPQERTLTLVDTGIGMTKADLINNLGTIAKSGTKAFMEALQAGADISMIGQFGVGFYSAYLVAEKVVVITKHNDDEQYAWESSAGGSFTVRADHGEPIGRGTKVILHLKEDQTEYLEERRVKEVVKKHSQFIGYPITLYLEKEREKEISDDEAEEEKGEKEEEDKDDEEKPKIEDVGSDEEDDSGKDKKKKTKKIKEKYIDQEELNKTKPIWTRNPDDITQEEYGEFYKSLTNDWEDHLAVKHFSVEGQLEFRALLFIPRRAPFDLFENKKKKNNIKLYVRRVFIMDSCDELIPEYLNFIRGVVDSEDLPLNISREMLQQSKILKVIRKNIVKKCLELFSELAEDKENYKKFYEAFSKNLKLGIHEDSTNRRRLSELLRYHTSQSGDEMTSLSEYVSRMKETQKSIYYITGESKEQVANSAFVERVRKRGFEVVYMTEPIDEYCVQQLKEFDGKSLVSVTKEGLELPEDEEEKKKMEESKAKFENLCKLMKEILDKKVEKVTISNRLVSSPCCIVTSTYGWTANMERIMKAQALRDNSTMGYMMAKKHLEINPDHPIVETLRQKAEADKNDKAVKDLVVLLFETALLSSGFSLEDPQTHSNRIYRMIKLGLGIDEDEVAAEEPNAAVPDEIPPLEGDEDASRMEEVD
Test: Fluorescence polarization assay (FITC-GDA tracer displacement)
Assay type: binding
Conditions: fluorescence polarization; read-out: Kd Hsp90β
pKd: −log10 of the molar value.
Think of 6 as a floor: if pKd stands on it or above, it is Y; beneath it, N.

Field: example entries. Status: answers known.
molecule=CCN1Cc2c(C(C)C)cc(C(=O)N3Cc4ccccc4C3)c(O)c2C1=O group=Y
molecule=CC(C)c1cc(C(=O)N2Cc3ccccc3C2)c(O)c2cn[nH]c12 group=N

Shifting focus to the molecule that follows.
// query Please indicate if the recorded pKd for CC(C)c1cc(C(=O)N2Cc3ccccc3C2)c(O)cc1CCl meets or exceeds 6.
// result N

Cited source for all entries: patent US10927076B2
